Target: Fuc(a1-2)Gal(b1-3)GlcNAc(b1-3)[Gal(b1-4)GlcNAc(b1-6)]Gal(b1-4)Glc
Test: glycan array binding signal (z-score within array); higher = stronger binding
Conditions: glycan notation: IUPAC condensed, linker removed
The entries come from a sample that favours the strongest signals as a whole.
Overview of reported glycan array binding signal (z-score) across a group of binders:

Gal 8 (Homo sapiens) (protein) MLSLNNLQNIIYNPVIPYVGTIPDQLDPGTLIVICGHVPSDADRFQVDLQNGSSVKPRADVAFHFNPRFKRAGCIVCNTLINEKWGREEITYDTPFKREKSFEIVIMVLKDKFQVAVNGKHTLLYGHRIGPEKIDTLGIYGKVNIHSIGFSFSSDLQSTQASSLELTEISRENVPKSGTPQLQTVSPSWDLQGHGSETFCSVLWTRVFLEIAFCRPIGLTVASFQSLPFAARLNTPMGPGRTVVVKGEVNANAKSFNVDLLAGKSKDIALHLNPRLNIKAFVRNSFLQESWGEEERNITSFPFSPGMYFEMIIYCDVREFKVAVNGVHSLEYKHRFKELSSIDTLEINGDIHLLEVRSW
0.003

In the following, a different binder is considered.
Ask: Dear colleague, I am looking for the recorded glycan array binding signal (z-score) of the following binder: DBA (Dolichos biflorus) (protein) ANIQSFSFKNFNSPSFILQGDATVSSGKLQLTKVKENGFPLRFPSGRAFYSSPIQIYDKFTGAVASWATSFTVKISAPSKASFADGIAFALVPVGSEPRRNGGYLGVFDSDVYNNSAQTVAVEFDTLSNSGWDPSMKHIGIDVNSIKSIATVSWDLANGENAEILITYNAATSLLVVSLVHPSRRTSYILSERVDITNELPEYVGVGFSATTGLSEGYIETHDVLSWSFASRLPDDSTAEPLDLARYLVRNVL
Reply: -0.099
